Data provenance: paper PMC4760375

- assayed target: TASK-1 pS392 C-terminal fluorescent peptide (human) (UniProt O14649)
- experiment summary: fluorescence polarisation; 10 nM fluorescein-labelled peptide titrated with 14-3-3 protein (1 nM to 120 µM in the results, 100 µM to 1 nM in the methods); 20 mM MOPS, 150 mM NaCl, 0.005% (v/v) CHAPS pH 7.0; room temperature; monophasic fit
Non-standard residues stand in square brackets, D forms with d. No end group written: not given here. pS = N[C@@H](COP(=O)(O)O)C(=O)O
attribute measured: pKd
Keep in mind that pKd stands for -log10 of concentration in molar terms.

Query string: Entry under review: 14-3-3η (natural protein) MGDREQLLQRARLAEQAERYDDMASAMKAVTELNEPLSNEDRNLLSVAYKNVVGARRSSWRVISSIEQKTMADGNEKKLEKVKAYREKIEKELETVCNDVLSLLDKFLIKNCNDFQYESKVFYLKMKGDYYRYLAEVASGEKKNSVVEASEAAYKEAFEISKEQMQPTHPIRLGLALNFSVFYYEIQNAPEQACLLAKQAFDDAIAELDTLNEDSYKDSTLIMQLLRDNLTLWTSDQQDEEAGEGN . Reported pKd?
Result string: 4.00
